The reported numbers originate from patent US11198713B2.

targetSystem: full-length beta-catenin (Axin site) (Homo sapiens)
Construct: 15 nM full-length beta-catenin, 20 nM FITC labeled peptide in buffer
Sequence (P35222 whole entry): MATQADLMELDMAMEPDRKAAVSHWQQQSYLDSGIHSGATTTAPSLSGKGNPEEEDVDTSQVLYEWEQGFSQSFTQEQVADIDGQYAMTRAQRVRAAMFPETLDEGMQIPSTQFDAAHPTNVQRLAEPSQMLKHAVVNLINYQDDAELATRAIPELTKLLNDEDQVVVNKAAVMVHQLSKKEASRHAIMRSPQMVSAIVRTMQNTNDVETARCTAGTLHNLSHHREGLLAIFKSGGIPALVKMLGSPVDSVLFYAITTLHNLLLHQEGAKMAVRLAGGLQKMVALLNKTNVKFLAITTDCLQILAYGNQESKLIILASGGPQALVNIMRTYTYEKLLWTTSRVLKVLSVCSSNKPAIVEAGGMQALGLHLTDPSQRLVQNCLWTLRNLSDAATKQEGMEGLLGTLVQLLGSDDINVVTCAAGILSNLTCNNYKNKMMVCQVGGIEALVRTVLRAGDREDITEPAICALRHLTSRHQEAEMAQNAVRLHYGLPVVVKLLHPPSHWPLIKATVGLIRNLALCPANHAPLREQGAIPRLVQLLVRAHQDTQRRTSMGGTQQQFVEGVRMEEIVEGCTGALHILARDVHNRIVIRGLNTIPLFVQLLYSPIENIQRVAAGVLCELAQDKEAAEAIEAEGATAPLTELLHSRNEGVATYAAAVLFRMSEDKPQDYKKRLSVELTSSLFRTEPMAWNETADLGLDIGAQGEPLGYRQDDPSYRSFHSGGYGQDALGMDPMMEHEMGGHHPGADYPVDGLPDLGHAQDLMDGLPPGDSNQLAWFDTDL
protocolDescription: Competition fluorescence polarization assay (Axin site probe)
Format: binding
conditions: competition fluorescence polarization, Table 2; read-out: in vitro FP EC50
Numbered stars: 1 amine (or outer) side, 2 acyl side, 3 side chain; on linkers, the order of the positions; unused ones are H or OH. Bridge positions count the residues as written; N and C are the ends. Square brackets hold non-standard residues; d marks the D form. Peptide text beside a SMILES is read from it. 3Aminoazetidine3carboxyl = O=C(C1(N[*:1])CN([*:3])C1)[*:2]; X3 = O=C([C@@]1(N[*:1])CCN([*:3])C1)[*:2]; X2 = O=C(OCC=CCOC(=O)[*:2])[*:1]
Would you kindly list EC50 for each of these compounds?

Req: Param readout= EC50; system= full-length beta-catenin (Axin site) (Homo sapiens); entry= CC[C@H](C)[C@@H]1NC(=O)[C@H](Cc2c[nH]cn2)NC(=O)[C@H](C)NC(=O)[C@H](CC(=O)O)NC(=O)[C@H](CC(C)C)NC(=O)[C@H]([C@@H](C)CC)NC(=O)C2(NC(=O)[C@H](C)NC(C)=O)CN(C2)C(=O)OCC=CCOC(=O)N2CC[C@](C(=O)N[C@@H](CCCNC(=N)N)C(=O)N[C@H](C(=O)N[C@@H](Cc3c[nH]c4ccccc34)C(N)=O)C(C)C)(C2)NC1=O [FP0616c, Ac-A-MA-I-L-D-A-H-I-MC-R-V-W-NH2] (Ac-A[3Aminoazetidine3carboxyl]ILDAHI[X3]RVW-NH2; linker 2-9 via X2) ; returns value.
Resp: < 0.1 µM

Req: Param readout= EC50; system= full-length beta-catenin (Axin site) (Homo sapiens); entry= CC[C@H](C)[C@@H]1NC(=O)[C@H](Cc2ccccn2)NC(=O)[C@H](C)NC(=O)[C@H](CC(=O)O)NC(=O)[C@H](CC(C)C)NC(=O)[C@H]([C@@H](C)CC)NC(=O)[C@](C)(NC(=O)[C@H](C)NC(C)=O)CCCCCCC=CCOC(=O)N2CC[C@@](C(=O)N[C@@H](Cc3cccnc3)C(=O)N[C@H](C(=O)N[C@@H](Cc3c[nH]c4ccccc34)C(N)=O)C(C)C)(C2)NC1=O (single isomer, unassigned) [FP0573c Isomer 2, Ac-A-R8-I-L-D-A-2pyr-I-MB-3pyr-V-W-NH2] ; returns value.
Resp: > 5 µM

Req: Param readout= EC50; system= full-length beta-catenin (Axin site) (Homo sapiens); entry= CC[C@H](C)[C@@H]1NC(=O)C2(NC(=O)[C@H](CCC(N)=O)NC(=O)[C@@H]3CCCN3C(C)=O)CN(C2)C(=O)OCC=CCCCC[C@](C)(C(=O)N[C@@H](Cc2c[nH]cn2)C(=O)N[C@H](C(=O)N[C@@H](CCCNC(=N)N)C(=O)N[C@@H](CCCNC(=N)N)C(=O)N[C@H](C(=O)N[C@@H](Cc2c[nH]c3ccccc23)C(=O)N[C@@H](CCCNC(=N)N)C(N)=O)C(C)C)C(C)C)NC(=O)[C@H](CC(=O)O)NC(=O)[C@H](CC(C)C)NC1=O (single isomer, unassigned) [FP0725c, Ac-P-Q-MA-I-L-D-R6-H-V-R-R-V-W-R-NH2] ; returns value.
Resp: < 0.1 µM

Req: Param readout= EC50; system= full-length beta-catenin (Axin site) (Homo sapiens); entry= CC[C@H](C)[C@@H]1NC(=O)[C@H](Cc2ccccn2)NC(=O)[C@H](C)NC(=O)[C@H](CC(=O)O)NC(=O)[C@H](CC(C)C)NC(=O)[C@H]([C@@H](C)CC)NC(=O)[C@](C)(NC(=O)[C@H](C)NC(C)=O)CCCCCCC=CCOC(=O)N2CC[C@@](C(=O)NC(C)(C)C(=O)N[C@H](C(=O)N[C@@H](Cc3c[nH]c4ccccc34)C(N)=O)C(C)C)(C2)NC1=O (single isomer, unassigned) [FP0570c Isomer 2, Ac-A-R8-I-L-D-A-2pyr-I-MB-Aib-V-W-NH2] ; returns value.
Resp: > 5 µM
